Molecular target: T1, murine BCMA extracellular domain, monomeric Fc-fusion (murine, UniProt O88472 1-49, site-specifically biotinylated at the C-terminal avi-tag)
T1 construct: extracellular domain; also called muBCMA; mouse BCMA; not shown: hinge and Fc of human IgG1, knob chain; avi-tag; unfused human IgG1 Fc portion (hole chain)
T1 sequence (O88472 whole entry, the tested form may be a part): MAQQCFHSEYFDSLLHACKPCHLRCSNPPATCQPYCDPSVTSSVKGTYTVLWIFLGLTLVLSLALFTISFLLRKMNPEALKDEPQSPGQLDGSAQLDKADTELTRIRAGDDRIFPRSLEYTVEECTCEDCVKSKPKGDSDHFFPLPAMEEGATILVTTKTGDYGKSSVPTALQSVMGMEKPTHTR
Assay: SPR one-shot kinetics (ProteOn XPR36), IgG captured from HEK293 supernatant via anti-human F(ab)2, BCMA as analyte
Reported pKd by item:
Just so you know, pKd here is -log10 of the concentration in molar units; reply with that number alone.

Use these answered entries as a reference point.
1) Mab 22 IgG (antibody, V domains shown, also called antibody 22; clone 22) VH: EVQLLESGGGLVQPGGSLRLSCAASGFTFSDNAMGWVRQAPGKGLEWVSAISGPGSSTYYADSVKGRFTISRDNSKNTLYLQMNSLRAEDTAVYYCAKVLGWFDYWGQGTLVTVSS VL: EIVLTQSPGTLSLSPGERATLSCRASQSVSSYYLAWYQQKPGQAPRLLISGAGSRATGIPDRFSGSGSGTDFTLTISRLEPEDFAVYYCQQYGYPPDFTFGQGTKVEIK; 9.05
2) Mab 21 IgG (antibody, V domains shown, also called antibody 21) VH: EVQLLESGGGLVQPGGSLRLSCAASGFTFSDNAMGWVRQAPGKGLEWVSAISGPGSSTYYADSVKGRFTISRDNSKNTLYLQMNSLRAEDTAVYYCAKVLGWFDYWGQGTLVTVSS VL: EIVLTQSPGTLSLSPGERATLSCRASQSVSEYYLAWYQQKPGQAPRLLIEHASTRATGIPDRFSGSGSGTDFTLTISRLEPEDFAVYYCQQYGYPPDFTFGQGTKVEIK; 9.14

The recorded pKd for entry Mab 27 IgG (antibody, V domains shown) VH: EVQLLESGGGLVQPGGSLRLSCAASGFTFSSAPMGWVRQAPGKGLEWVSAISYIGHTYYADSVKGRFTISRDNSKNTLYLQMNSLRAEDTAVYYCAKVLGWFDYWGQGTLVTVSS VL: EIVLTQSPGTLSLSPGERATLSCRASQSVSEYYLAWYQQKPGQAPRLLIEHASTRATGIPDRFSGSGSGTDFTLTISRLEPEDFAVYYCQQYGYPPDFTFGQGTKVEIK equals 9.01
